SYSTEM_NAME: HIS-TGFβR1 T204D (Homo sapiens (Human), UniProt P36897, T204D)
Sequence (P36897 34-503 T204D): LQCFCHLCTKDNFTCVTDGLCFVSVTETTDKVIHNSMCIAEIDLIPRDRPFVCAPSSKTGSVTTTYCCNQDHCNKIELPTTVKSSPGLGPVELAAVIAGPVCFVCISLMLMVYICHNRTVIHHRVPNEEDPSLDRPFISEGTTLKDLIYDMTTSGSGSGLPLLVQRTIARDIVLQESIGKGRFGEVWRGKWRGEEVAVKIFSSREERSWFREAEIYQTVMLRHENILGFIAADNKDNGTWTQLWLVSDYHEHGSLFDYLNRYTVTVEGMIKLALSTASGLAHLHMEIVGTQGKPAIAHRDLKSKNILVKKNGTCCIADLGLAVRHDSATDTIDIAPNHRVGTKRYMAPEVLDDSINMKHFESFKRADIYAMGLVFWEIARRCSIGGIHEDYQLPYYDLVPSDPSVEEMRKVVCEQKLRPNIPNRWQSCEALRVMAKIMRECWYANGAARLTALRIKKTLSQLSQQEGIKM
PROTOCOL_TEXT: HTRF probe-displacement assay, HIS-TGFβR1 T204D
RECORDED_CONDITIONS: 1 hour at room temperature
REPORTED_PROPERTY: IC50 (nM)
All answers are understood in nM, so give the number only.

Examples with their reported IC50 follow.
>  <COMPOUND>
OC1(c2ccccc2)CCN(Cc2ccn3nc(-c4ccccn4)nc(Nc4ccncc4F)c23)CC1 [Example 277]

>  <QUANTITY_UNIT>
nM

>  <IC50>
1.5

$$$$
>  <COMPOUND>
Fc1cnccc1Nc1nc(-c2ccccn2)nn2ccc(CNCC3CCCCN3)c12 (stereo not drawn) [Example 265]

>  <QUANTITY_UNIT>
nM

>  <IC50>
6.7

$$$$
>  <COMPOUND>
Fc1cnccc1Nc1nc(-c2ccccn2)nn2ccc(CN3CCC(F)(F)CC3)c12 [Example 27]

>  <QUANTITY_UNIT>
nM

>  <IC50>
1.3

$$$$
>  <COMPOUND>
Cc1csc(-c2nc(Nc3ccncc3Cl)c3cccn3n2)n1 [Example 87]

>  <QUANTITY_UNIT>
nM

>  <IC50>
0.92

$$$$
>  <COMPOUND>
Cc1nc2ccc(NCc3ccn4nc(-c5ccccn5)nc(Nc5ccncc5F)c34)cc2s1 [Example 295]

>  <QUANTITY_UNIT>
nM

>  <IC50>
30

$$$$
>  <COMPOUND>
Fc1cnccc1Nc1nc(-c2ccccn2)nn2ccc(CNCC3CCC3)c12 [Example 271]

>  <QUANTITY_UNIT>
nM

>  <IC50>
1.2

$$$$
>  <COMPOUND>
Fc1cnccc1Nc1nc(-c2ccccn2)nn2ccc(CNc3cc(-c4ccccc4)[nH]n3)c12 [Example 298]

>  <QUANTITY_UNIT>
nM

>  <IC50>
27

$$$$
>  <COMPOUND>
Fc1cnccc1Nc1nc(-c2ccccn2)nn2ccc(CN3CCN(c4ncccn4)CC3)c12 [Example 276]

>  <QUANTITY_UNIT>
nM

>  <IC50>
1.6

$$$$
>  <COMPOUND>
CCNC(=O)Nc1cc2c(Nc3ccncc3F)nc(-c3cccc(OC)n3)nn2c1 [Example 72]

>  <QUANTITY_UNIT>
nM

>  <IC50>
370

$$$$
>  <COMPOUND>
CC(C)n1cc(NCc2ccn3nc(-c4ccccn4)nc(Nc4ccncc4F)c23)cn1 [Example 302]

>  <QUANTITY_UNIT>
nM

>  <IC50>
1.7

$$$$

Query: Which IC50 value belongs to Cc1cccc(-c2nc(Nc3ccncc3C(=O)NC[C@H](O)CO)c3cccn3n2)n1 [Example 158] ?
Result: 7.9

----------
SYSTEM_NAME: HIS-TGFβR1 T204D (Homo sapiens (Human), UniProt P36897, T204D)
PROTOCOL_TEXT: HTRF probe-displacement assay, HIS-TGFβR1 T204D
RECORDED_CONDITIONS: 1 hour at room temperature
REPORTED_PROPERTY: IC50 (nM)
All answers are understood in nM, so give the number only.

>  <MOLECULE>
Cc1cccc(-c2nc(Nc3ccncc3C(=O)NCCN3CCCCC3)c3cccn3n2)n1 [Example 155]

>  <QUANTITY_UNIT>
nM

>  <EXPERIMENTAL_VALUE>
6.8

$$$$
>  <MOLECULE>
CC1(NCc2ccn3nc(-c4ccccn4)nc(Nc4ccncc4F)c23)CCC1 [Example 241]

>  <QUANTITY_UNIT>
nM

>  <EXPERIMENTAL_VALUE>
0.27

$$$$
>  <MOLECULE>
Fc1cccc(-c2nc(Nc3ccncc3)c3cccn3n2)n1 [Example 213]

>  <QUANTITY_UNIT>
nM

>  <EXPERIMENTAL_VALUE>
14

$$$$

Query: Which IC50 value belongs to COc1cccc(-c2nc(Nc3ccncc3F)c3c(CNCCN4CCCC4)ccn3n2)n1 [Example 119] ?
Result: 63

Query: Same read-out for O=C(NCCCN1CCCC1=O)c1cnccc1Nc1nc(-c2ccccn2)nn2cccc12 [Example 149] ?
Result: 49

Query: Same read-out for COc1cccc(-c2nc(Nc3ccncc3F)c3c(CN4CCC(F)(F)CC4)ccn3n2)n1 [Example 25] ?
Result: 9

Query: Same read-out for OCC1(NCc2ccn3nc(-c4ccccn4)nc(Nc4ccncc4F)c23)CCCC1 [Example 244] ?
Result: 6.3

Query: Same read-out for O=C(NCCCN1CCCC1)c1cnccc1Nc1nc(-c2ccccn2)nn2cccc12 [Example 150] ?
Result: 16
